Reference source for all entries: BindingDB's records for doi:10.1074/jbc.M809430200

- tested on: Mitogen-activated protein kinase 10 (Homo sapiens, UniProt P53779)
- Sequence (P53779 whole entry): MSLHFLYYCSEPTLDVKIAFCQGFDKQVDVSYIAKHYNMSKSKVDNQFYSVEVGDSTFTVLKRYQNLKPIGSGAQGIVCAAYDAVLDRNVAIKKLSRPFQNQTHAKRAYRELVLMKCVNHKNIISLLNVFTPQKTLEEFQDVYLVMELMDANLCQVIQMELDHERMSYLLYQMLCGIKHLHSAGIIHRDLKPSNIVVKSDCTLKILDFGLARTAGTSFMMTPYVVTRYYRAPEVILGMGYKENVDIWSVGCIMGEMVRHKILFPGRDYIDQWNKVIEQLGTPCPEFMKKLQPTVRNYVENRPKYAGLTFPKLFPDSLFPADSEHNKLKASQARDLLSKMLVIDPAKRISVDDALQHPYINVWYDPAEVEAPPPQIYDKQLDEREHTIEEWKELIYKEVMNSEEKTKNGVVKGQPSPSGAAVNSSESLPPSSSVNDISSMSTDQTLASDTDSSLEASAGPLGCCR
- test method notes: Fluorescence Assay
- assay conditions: pH 7; 22 °C
IC50 values for the compounds below.
// note: answer is a bare numeric in µM

[[record]]
compound = "Cc1cncc(NC(=O)c2cccc(-n3cc(NC(=O)Nc4ccccc4Cl)cn3)c2)c1 [Aminopyrazole inhibitor, 4326]"
property_label = "IC50"
result_value = 0.055

[[record]]
compound = "COc1cc(NC(=O)c2cccc(-n3cc(NC(=O)Nc4ccccc4Cl)cn3)c2)cc(OC)c1OC [Aminopyrazole inhibitor, 3528]"
property_label = "IC50"
result_value = 0.023

[[record]]
compound = "Cc1cccc(NC(=O)Nc2cnn(-c3cccc(C(=O)NCCN4CCOCC4)c3)c2)c1 [Aminopyrazole inhibitor, 4018]"
property_label = "IC50"
result_value = 2.1

[[record]]
compound = "O=C(Nc1cnn(-c2cccc(C(=O)NCCCN3CCOCC3)c2)c1)Nc1ccccc1Cl [Aminopyrazole inhibitor, 4276]"
property_label = "IC50"
result_value = 0.35

[[record]]
compound = "Cc1cncc(NC(=O)c2cc(N3CCOCC3)cc(-n3cc(NC(=O)Nc4ccccc4Cl)cn3)c2)c1 [Aminopyrazole inhibitor, 4643]"
property_label = "IC50"
result_value = 1.5


(Q) Recall the reported IC50 of COc1cc(NC(=O)c2cccc(-n3cc(NC(=O)Nc4ccccc4)cn3)c2)cc(OC)c1OC [Aminopyrazole inhibitor, 3451] when tested on Mitogen-activated protein kinase 10 (Homo sapiens, UniProt P53779).
(A) 0.025

(Q) With Mitogen-activated protein kinase 10 (Homo sapiens, UniProt P53779) as the test system, provide measured IC50 for this compound: COc1cc(NC(=O)c2cccc(-n3cc(NC(=O)Nc4cccc(C)c4)cn3)c2)cc(OC)c1OC [Aminopyrazole inhibitor, 3576]
(A) 0.007

(Q) State measured IC50 of the compound COc1cc(NC(=O)c2cccc(-n3cc(NC(=O)Nc4ccc(Cl)cc4)cn3)c2)cc(OC)c1OC [Aminopyrazole inhibitor, 3583] with Mitogen-activated protein kinase 10 (Homo sapiens, UniProt P53779).
(A) 0.48

(Q) Using Mitogen-activated protein kinase 10 (Homo sapiens, UniProt P53779) as the test system, report measured IC50 of Cc1cncc(NC(=O)c2cc(N(C)C)cc(-n3cc(NC(=O)Nc4ccccc4Cl)cn3)c2)c1 [Aminopyrazole inhibitor, 4642] .
(A) 2.2

###

- tested on: Mitogen-activated protein kinase 14 (p38α) (Homo sapiens) (UniProt Q16539)
- test method notes: Homogeneous time-resolved fluorescence assay is an enzyme inhibition studies that were performed in 384-well polystyrene homogeneous time-resolved fluorescence plates (grainier).
- assay conditions: pH 7
pIC50: −log10 of the molar value.
Recorded measurements of pIC50, one per entry

Observe how each entry below is paired with its result.
[[record]]
substance_smiles = "COc1cc(NC(=O)c2cccc(-n3cc(NC(=O)Nc4ccccc4)cn3)c2)cc(OC)c1OC"
tested_on = "Mitogen-activated protein kinase 14 (p38α) (Homo sapiens) (UniProt Q16539)"
property_label = "pIC50"
result_value = 5.43

[[record]]
substance_smiles = "Cc1cccc(NC(=O)Nc2cnn(-c3cccc(C(=O)NCCN4CCOCC4)c3)c2)c1"
tested_on = "Mitogen-activated protein kinase 14 (p38α) (Homo sapiens) (UniProt Q16539)"
property_label = "pIC50"
result_value = "< 4.70"

[[record]]
substance_smiles = "Cc1cncc(NC(=O)c2cc(N(C)C)cc(-n3cc(NC(=O)Nc4ccccc4Cl)cn3)c2)c1"
tested_on = "Mitogen-activated protein kinase 14 (p38α) (Homo sapiens) (UniProt Q16539)"
property_label = "pIC50"
result_value = "< 4.70"


Attention now shifts to the item below.
(Q) Identify measured pIC50 obtained with Mitogen-activated protein kinase 14 (p38α) (Homo sapiens) (UniProt Q16539) for Cc1cncc(NC(=O)c2cccc(-n3cc(NC(=O)Nc4ccccc4Cl)cn3)c2)c1 .
(A) < 4.70

###

- tested on: Mitogen-activated protein kinase 8 (Homo sapiens, UniProt P45983)
- Sequence (P45983 whole entry): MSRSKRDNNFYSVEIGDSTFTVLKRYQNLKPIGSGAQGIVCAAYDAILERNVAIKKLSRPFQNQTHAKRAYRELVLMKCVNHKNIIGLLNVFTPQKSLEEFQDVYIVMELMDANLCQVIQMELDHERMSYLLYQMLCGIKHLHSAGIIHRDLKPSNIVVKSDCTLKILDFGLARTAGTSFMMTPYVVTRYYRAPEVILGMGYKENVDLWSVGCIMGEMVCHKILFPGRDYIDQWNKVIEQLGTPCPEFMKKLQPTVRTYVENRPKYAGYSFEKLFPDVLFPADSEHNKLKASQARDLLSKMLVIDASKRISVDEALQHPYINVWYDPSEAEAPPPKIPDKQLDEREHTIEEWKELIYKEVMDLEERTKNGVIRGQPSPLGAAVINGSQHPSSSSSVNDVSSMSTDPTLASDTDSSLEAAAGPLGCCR
- test method notes: Fluorescence Assay
- assay conditions: pH 7; 22 °C
property label: IC50 (nM)
The figure you give is taken to be in nM; do not add the unit.

[[record]]
compound = "COc1cc(NC(=O)c2cccc(-n3cc(NC(=O)Nc4ccccc4)cn3)c2)cc(OC)c1OC [Aminopyrazole inhibitor, 3451]"
unit_string = "nM"
result_value = 400

[[record]]
compound = "COc1cc(NC(=O)c2cccc(-n3cc(NC(=O)Nc4ccccc4Cl)cn3)c2)cc(OC)c1OC [Aminopyrazole inhibitor, 3528]"
unit_string = "nM"
result_value = 560

[[record]]
compound = "COc1cc(NC(=O)c2cccc(-n3cc(NC(=O)Nc4cccc(C)c4)cn3)c2)cc(OC)c1OC [Aminopyrazole inhibitor, 3576]"
unit_string = "nM"
result_value = 170


// next item, IC50 requested
(Q) Complete the entry with IC50 for Cc1cncc(NC(=O)c2cccc(-n3cc(NC(=O)Nc4ccccc4Cl)cn3)c2)c1 [Aminopyrazole inhibitor, 4326]
(A) 1400

###

- tested on: Mitogen-activated protein kinase 8 (Homo sapiens, UniProt P45983)
- test method notes: Fluorescence Assay
- assay conditions: pH 7; 22 °C
Reported IC50 values for the following compounds.

Check out these entries, answers already filled in.
[[record]]
compound = "Cc1cccc(NC(=O)Nc2cnn(-c3cccc(C(=O)NCCN4CCOCC4)c3)c2)c1 [Aminopyrazole inhibitor, 4018]"
tested_on = "Mitogen-activated protein kinase 8 (Homo sapiens, UniProt P45983)"
property_label = "IC50"
result_value = "> 20 µM"

[[record]]
compound = "Cc1cncc(NC(=O)c2cc(N(C)C)cc(-n3cc(NC(=O)Nc4ccccc4Cl)cn3)c2)c1 [Aminopyrazole inhibitor, 4642]"
tested_on = "Mitogen-activated protein kinase 8 (Homo sapiens, UniProt P45983)"
property_label = "IC50"
result_value = "> 20 µM"


Now for the compound whose IC50 we want.
(Q) Identify measured IC50 corresponding to Cc1cncc(NC(=O)c2cc(N3CCOCC3)cc(-n3cc(NC(=O)Nc4ccccc4Cl)cn3)c2)c1 [Aminopyrazole inhibitor, 4643]
(A) > 20 µM
